# Test system: PZ
# Experiment notes: 48 h incubation with the salts: cell fluorescence, living cells, multiplication coefficient (Table 1)
# Format: cell-based
# Details: 48 hs, 50 mcg/ml
Catalogue of Percentage of living cells /P %/ values
Quick reminder: number only, in %, skip the unit.

Compound | Reported value
CC1=C(CCC(=O)O)c2cc3[nH]c(cc4nc(cc5[nH]c(cc1n2)c(C(C)NC(CCC(=O)O)C(=O)O)c5C)C(C(C)NC(CCC(=O)O)C(=O)O)=C4C)c(C)c3CCC(=O)O.N=C(N)NCCC[C@H](N)C(=O)O.N=C(N)NCCC[C@H](N)C(=O)O (stereo not shown) | 15
CC1=C(CCC(=O)O)c2cc3[nH]c(cc4nc(cc5[nH]c(cc1n2)c(C(C)NC(CC(=O)O)C(=O)O)c5C)C(C(C)NC(CC(=O)O)C(=O)O)=C4C)c(C)c3CCC(=O)O.N=C(N)NCCC[C@H](N)C(=O)O.N=C(N)NCCC[C@H](N)C(=O)O (stereo not shown) | 14
CSCCC(NC(C)C1=C(C)c2cc3[nH]c(cc4nc(cc5[nH]c(cc1n2)c(C)c5C(C)NC(CCSC)C(=O)O)C(C)=C4CCC(=O)O)c(CCC(=O)O)c3C)C(=O)O.N=C(N)NCCC[C@H](N)C(=O)O.N=C(N)NCCC[C@H](N)C(=O)O (stereo not shown) | 8
CC1=C(CCC(=O)O)c2cc3[nH]c(cc4nc(cc5[nH]c(cc1n2)c(C(C)NC(C)C(=O)O)c5C)C(C(C)NC(C)C(=O)O)=C4C)c(C)c3CCC(=O)O.N=C(N)NCCC[C@H](N)C(=O)O.N=C(N)NCCC[C@H](N)C(=O)O (stereo not shown) | 15
CC1=C(CCC(=O)O)c2cc3[nH]c(cc4nc(cc5[nH]c(cc1n2)c(C(C)NC(CCCCN)C(=O)O)c5C)C(C(C)NC(CCCCN)C(=O)O)=C4C)c(C)c3CCC(=O)O.N=C(N)NCCC[C@H](N)C(=O)O.N=C(N)NCCC[C@H](N)C(=O)O (stereo not drawn) [PP/Lys/2 /Arg/2, l-arginine di/N-lysyl/-protoporphyrinate] | 50

Exam item: Entry CC1=C(CCC(=O)O)c2cc3[nH]c(cc4nc(cc5[nH]c(cc1n2)c(C(C)NC(CS)C(=O)O)c5C)C(C(C)NC(CS)C(=O)O)=C4C)c(C)c3CCC(=O)O.N=C(N)NCCC[C@H](N)C(=O)O.N=C(N)NCCC[C@H](N)C(=O)O (stereo not shown) : reported Percentage of living cells /P %/ = ?
Marked response: 40

Exam item: // next record CC1=C(CCC(=O)O)c2cc3[nH]c(cc4nc(cc5[nH]c(cc1n2)c(C(C)NC(Cc1c[nH]c2ccccc12)C(=O)O)c5C)C(C(C)NC(Cc1c[nH]c2ccccc12)C(=O)O)=C4C)c(C)c3CCC(=O)O.N=C(N)NCCC[C@H](N)C(=O)O.N=C(N)NCCC[C@H](N)C(=O)O (stereo not shown)
Marked response: 50
